Target: Vitamin D3 receptor (Homo sapiens) (UniProt P11473)
Sequence (P11473 whole entry): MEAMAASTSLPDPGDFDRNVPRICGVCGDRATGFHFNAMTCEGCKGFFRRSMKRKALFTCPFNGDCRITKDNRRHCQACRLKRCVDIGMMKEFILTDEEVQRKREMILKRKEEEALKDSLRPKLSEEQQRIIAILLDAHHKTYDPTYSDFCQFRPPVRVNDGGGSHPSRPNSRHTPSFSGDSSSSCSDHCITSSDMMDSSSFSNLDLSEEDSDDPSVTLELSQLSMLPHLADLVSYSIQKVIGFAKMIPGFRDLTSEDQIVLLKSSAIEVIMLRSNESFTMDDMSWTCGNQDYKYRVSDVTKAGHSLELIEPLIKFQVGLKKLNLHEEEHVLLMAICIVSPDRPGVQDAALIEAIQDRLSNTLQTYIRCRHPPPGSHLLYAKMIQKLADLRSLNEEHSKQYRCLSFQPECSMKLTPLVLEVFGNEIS
Assay: Modulation of VDR (unknown origin) expressed in human HeLa cells assessed as increase in calcitriol-induced response measured after 24 hrs by luciferase reporter assay
Type: cell-based
Active and inactive are the calls of the source. No cut-off for these calls is given here.
Return exactly one item of active, inactive

QUERY: // outcome(item) with item = "CSCC[C@H](N)C(=O)Oc1ccc([C@H]2N(c3ccc([N+](=O)[O-])cc3)C(=O)[C@@H]3CCCN32)cc1.Cl"
RESULT: active

QUERY: // outcome(item) with item = "COc1cc([C@H]2N(c3ccc([N+](=O)[O-])cc3)C(=O)[C@@H]3CCCN32)ccc1O"
RESULT: active

QUERY: // outcome(item) with item = "O=C1[C@@H]2CCCN2[C@@H](c2ccc(C(F)(F)F)cc2)N1c1ccc([N+](=O)[O-])cc1"
RESULT: inactive

QUERY: // outcome(item) with item = "O=C1[C@@H]2CCCN2[C@@H](c2ccc([C@H]3N(c4ccc([N+](=O)[O-])cc4)C(=O)[C@@H]4CCCN43)cc2)N1c1ccc([N+](=O)[O-])cc1"
RESULT: inactive

QUERY: // outcome(item) with item = "O=C1[C@@H]2CCCN2[C@@H](c2ccc([N+](=O)[O-])cc2)N1c1ccc([N+](=O)[O-])cc1"
RESULT: active

QUERY: // outcome(item) with item = "COc1ccc([C@H]2N(c3ccc([N+](=O)[O-])cc3)C(=O)[C@@H]3CCCN32)cc1"
RESULT: inactive

QUERY: // outcome(item) with item = "O=C1[C@@H]2CCCN2[C@@H](c2ccc(O)cc2)N1c1ccc([N+](=O)[O-])cc1"
RESULT: active

* * *

Biological target: Genome polyprotein (dengue virus type 2) (UniProt P29990)
Experiment: Inhibition of Dengue virus 2 NS2B-NS3 protease
Active and inactive are the calls of the source. The calls are words filed in the database; no cut-off is given here.
Metric name: Inhibition (active/not active)

QUERY: // returns reported Inhibition (active/not active) for input "O=C1[C@@H]2CCCN2[C@@H](c2ccccc2[N+](=O)[O-])N1c1ccc([N+](=O)[O-])cc1"
RESULT: inactive

QUERY: // returns reported Inhibition (active/not active) for input "CC(C)c1ccc([C@H]2N(c3ccc([N+](=O)[O-])cc3)C(=O)[C@@H]3CCCN32)cc1"
RESULT: Active

QUERY: // returns reported Inhibition (active/not active) for input "O=C1[C@@H]2CCCN2[C@@H](c2ccc([N+](=O)[O-])cc2)N1c1ccc([N+](=O)[O-])cc1"
RESULT: Active

QUERY: // returns reported Inhibition (active/not active) for input "O=C1[C@@H]2CCCN2[C@@H](CCC[C@H]2N(c3ccc([N+](=O)[O-])cc3)C(=O)[C@@H]3CCCN32)N1c1ccc([N+](=O)[O-])cc1"
RESULT: inactive

* * *

Target: Genome polyprotein (dengue virus type 2)
Test: Inhibition of Dengue virus 2 NS2B-NS3 protease
Calls of active or inactive are those of the source. The rule behind the calls is not given here.
Return exactly one item of 1 (yes) for active, 0 (no) for inactive

QUERY: // outcome(item) with item = "COc1cc([C@H]2N(c3ccc([N+](=O)[O-])cc3)C(=O)[C@@H]3CCCN32)ccc1O"
RESULT: 0 (no)

QUERY: // outcome(item) with item = "CSCC[C@H](NC(=O)OC(C)(C)C)C(=O)Nc1ccc([C@H]2N(c3ccc([N+](=O)[O-])cc3)C(=O)[C@@H]3CCCN32)cc1"
RESULT: 0 (no)

QUERY: // outcome(item) with item = "O=C1[C@@H]2CCCN2[C@@H](c2ccc(O)cc2)N1c1ccc([N+](=O)[O-])cc1"
RESULT: 0 (no)

QUERY: // outcome(item) with item = "COc1ccc(C[C@H]2N(c3ccc([N+](=O)[O-])cc3)C(=O)[C@@H]3CCCN32)cc1OC"
RESULT: 0 (no)

QUERY: // outcome(item) with item = "O=C1[C@@H]2CCCN2[C@@H](c2cccc([N+](=O)[O-])c2)N1c1ccc([N+](=O)[O-])cc1"
RESULT: 1 (yes)

QUERY: // outcome(item) with item = "O=C1[C@@H]2CCCN2[C@@H](c2ccccc2)N1c1ccc([N+](=O)[O-])cc1"
RESULT: 1 (yes)

QUERY: // outcome(item) with item = "COc1ccc([C@H]2N(c3ccc([N+](=O)[O-])cc3)C(=O)[C@@H]3CCCN32)cc1"
RESULT: 1 (yes)

QUERY: // outcome(item) with item = "O=C1[C@@H]2CCCN2[C@@H](Cc2ccc([N+](=O)[O-])cc2)N1c1ccc([N+](=O)[O-])cc1"
RESULT: 1 (yes)

* * *

Target: Vitamin D3 receptor (Homo sapiens)
Assay: Modulation of VDR in human HeLa cells assessed as increase in calcitriol-induced upregulation of LC3-2 expression at 10 uM measured after 4 hrs by Western blot analysis
Assay type: cell-based
Active and inactive are the calls of the source. The calls are words filed in the database; no cut-off is given here.
Metric name: Activity

QUERY: // returns reported Activity for input "COc1ccc(C[C@H]2N(c3ccc([N+](=O)[O-])cc3)C(=O)[C@@H]3CCCN32)cc1OC"
RESULT: Active

QUERY: // returns reported Activity for input "COc1cc([C@H]2N(c3ccc([N+](=O)[O-])cc3)C(=O)[C@@H]3CCCN32)ccc1O"
RESULT: Active

QUERY: // returns reported Activity for input "CSCC[C@H](NC(=O)OC(C)(C)C)C(=O)Nc1ccc([C@H]2N(c3ccc([N+](=O)[O-])cc3)C(=O)[C@@H]3CCCN32)cc1"
RESULT: Active

QUERY: // returns reported Activity for input "CSCC[C@H](N)C(=O)Oc1ccc([C@H]2N(c3ccc([N+](=O)[O-])cc3)C(=O)[C@@H]3CCCN32)cc1.Cl"
RESULT: Active

Please find the next compound below.
QUERY: // returns reported Activity for input "O=C1[C@@H]2CCCN2[C@@H](c2ccco2)N1c1ccc([N+](=O)[O-])cc1"
RESULT: Active

* * *

Molecular target: Genome polyprotein (dengue virus type 2) (UniProt P29990)
Test: Inhibition of Dengue virus 2 NS2B-NS3 protease
Calls of active or inactive are those of the source. No cut-off for these calls is given here.
Return exactly one item of yes (1) (active), no (0) (inactive)

QUERY: // outcome(item) with item = "O=C1[C@@H]2CCCN2[C@@H](Cc2ccccc2)N1c1ccc([N+](=O)[O-])cc1"
RESULT: yes (1)

QUERY: // outcome(item) with item = "O=C1[C@@H]2CCCN2[C@@H](c2ccc([C@H]3N(c4ccc([N+](=O)[O-])cc4)C(=O)[C@@H]4CCCN43)cc2)N1c1ccc([N+](=O)[O-])cc1"
RESULT: no (0)

QUERY: // outcome(item) with item = "O=C1[C@@H]2CCCN2[C@@H](c2cccs2)N1c1ccc([N+](=O)[O-])cc1"
RESULT: no (0)

QUERY: // outcome(item) with item = "O=C1[C@@H]2CCCN2[C@@H](c2ccc(C(F)(F)F)cc2)N1c1ccc([N+](=O)[O-])cc1"
RESULT: yes (1)

QUERY: // outcome(item) with item = "O=C1[C@@H]2CCCN2[C@@H](c2ccco2)N1c1ccc([N+](=O)[O-])cc1"
RESULT: no (0)

QUERY: // outcome(item) with item = "O=C1[C@@H]2CCCN2[C@@H](c2ccc(Cl)cc2)N1c1ccc([N+](=O)[O-])cc1"
RESULT: yes (1)

QUERY: // outcome(item) with item = "CSCC[C@H](N)C(=O)Oc1ccc([C@H]2N(c3ccc([N+](=O)[O-])cc3)C(=O)[C@@H]3CCCN32)cc1.Cl"
RESULT: no (0)

* * *

Biological target: Vitamin D3 receptor (Homo sapiens)
Assay: Modulation of VDR (unknown origin) expressed in human HeLa cells assessed as increase in calcitriol-induced response measured after 24 hrs by luciferase reporter assay
Type: cell-based
Activity calls are given as the source filed them. The calls are words filed in the database; no cut-off is given here.
Metric name: Activity

QUERY: // returns reported Activity for input "O=C1[C@@H]2CCCN2[C@@H](c2ccco2)N1c1ccc([N+](=O)[O-])cc1"
RESULT: Dose-dependent effect

QUERY: // returns reported Activity for input "CSCC[C@H](NC(=O)OC(C)(C)C)C(=O)Nc1ccc([C@H]2N(c3ccc([N+](=O)[O-])cc3)C(=O)[C@@H]3CCCN32)cc1"
RESULT: Dose-dependent effect

QUERY: // returns reported Activity for input "O=C1[C@@H]2CCCN2[C@@H](c2cccs2)N1c1ccc([N+](=O)[O-])cc1"
RESULT: inactive

QUERY: // returns reported Activity for input "O=C1[C@@H]2CCCN2[C@@H](c2ccc(Cl)cc2)N1c1ccc([N+](=O)[O-])cc1"
RESULT: inactive

* * *

Tested on: HeLa
Test: Induction of autophagy in human HeLa cells assessed as calcitriol-induced up regulation of LC3-1 expression at 10 uM measured after 4 hrs by Western blot analysis
Type: functional, cell-based
Active and inactive are the calls of the source. The rule behind the calls is not given here.
Return exactly one item of class 1 (active), class 0 (inactive)

QUERY: // outcome(item) with item = "CSCC[C@H](NC(=O)OC(C)(C)C)C(=O)Nc1ccc([C@H]2N(c3ccc([N+](=O)[O-])cc3)C(=O)[C@@H]3CCCN32)cc1"
RESULT: class 1

QUERY: // outcome(item) with item = "CSCC[C@H](N)C(=O)Oc1ccc([C@H]2N(c3ccc([N+](=O)[O-])cc3)C(=O)[C@@H]3CCCN32)cc1.Cl"
RESULT: class 1

QUERY: // outcome(item) with item = "COc1ccc(C[C@H]2N(c3ccc([N+](=O)[O-])cc3)C(=O)[C@@H]3CCCN32)cc1OC"
RESULT: class 0

QUERY: // outcome(item) with item = "COc1cc([C@H]2N(c3ccc([N+](=O)[O-])cc3)C(=O)[C@@H]3CCCN32)ccc1O"
RESULT: class 1

QUERY: // outcome(item) with item = "O=C1[C@@H]2CCCN2[C@@H](c2ccco2)N1c1ccc([N+](=O)[O-])cc1"
RESULT: class 1
